- test details: Mammalian Toxicity, peroral toxicity to rat
- Assay type: in vivo
- experimental parameters: in vivo, po, read-out: A.O. Rat LD50
- Protocol: Certain compounds were also evaluated to determine their peroral toxicity to mammals by conventional methods. The representative animal selected for this experiment was the rat.
assay metric: LD50 (mg/kg)

1) CN(SN(C)C(=O)ON=C1SC(C)(C)C(=O)N1C)C(=O)ON=C1CSCCS1 [Example III] :: 160
2) CSC(C)=NOC(=O)N(C)SN(C)C(=O)ON=C(C)SCCC#N [X] :: 67.3
3) CSC(C)=NOC(=O)N(C)SN(C)C(=O)Oc1ccc(SC)c(C)c1 [XV] :: 40
4) C#CCOc1ccccc1OC(=O)N(C)SN(C)C(=O)ON=C(C)SC [XXXIX] :: 160
5) CSC(C)=NOC(=O)N(C)SN(C)C(=O)ON=CC(C)(C)SC [Example I] :: 2.1

All values here come from patent US4551472A.
